- Target Under Test: 5-HT2A (Homo sapiens (Human), UniProt P28223)
- Sequence (P28223 whole entry): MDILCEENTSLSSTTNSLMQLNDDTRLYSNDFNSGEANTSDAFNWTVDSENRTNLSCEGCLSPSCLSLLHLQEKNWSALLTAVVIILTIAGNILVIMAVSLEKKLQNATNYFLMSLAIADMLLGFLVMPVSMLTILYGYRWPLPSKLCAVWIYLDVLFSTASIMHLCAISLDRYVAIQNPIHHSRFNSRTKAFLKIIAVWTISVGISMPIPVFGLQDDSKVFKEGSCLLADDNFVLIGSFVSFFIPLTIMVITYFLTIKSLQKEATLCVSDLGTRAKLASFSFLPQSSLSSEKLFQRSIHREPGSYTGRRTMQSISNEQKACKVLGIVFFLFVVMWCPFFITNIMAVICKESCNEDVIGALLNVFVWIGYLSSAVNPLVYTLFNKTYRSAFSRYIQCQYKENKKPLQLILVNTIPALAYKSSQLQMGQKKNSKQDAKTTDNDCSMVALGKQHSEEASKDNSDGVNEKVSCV
- Assay Explanation: Radioligand binding assay, [^3H]5-HT competition, 5-HT2A
- Test Context: [^3H]5-HT radioligand, membranes of HEK293 cells expressing recombinant 5-HT2A; Ki from IC50 by Cheng-Prusoff; read-out: 5-HT2A serotonin binding Ki value
Would you kindly list Ki for each of these compounds?
Numbers only here, please. The scale is nM.

QUERY: Consider the compound shown here: Cc1ncnc(C)c1-c1cc(NC(=O)c2ccccc2F)ccc1OCCN1CCC1 [Compound 319] What is its recorded Ki?
RESULT: 3.62

QUERY: Value lookup for Ki; key = COCCNCCOc1ccc(NC(=O)c2ccc(F)cc2)cc1-c1c(C)ncnc1C [Compound 374]
RESULT: 3.44

QUERY: Which Ki value is on record for Cc1ncnc(C)c1-c1cc(NC(=O)CCc2ccn(C)n2)ccc1OCCN1CCCC1 [Compound 270] ?
RESULT: 51.6

QUERY: Reported Ki, compound COc1ccc(CC(=O)Nc2ccc(OCCN3CCCC3)c(-c3c(C)ncnc3C)c2)cc1 [Compound 276] : ____
RESULT: 0.843
